# target_or_system: Dickkopf-related protein 1 (Homo sapiens) (UniProt O94907)
# Sequence (O94907 whole entry, looked up): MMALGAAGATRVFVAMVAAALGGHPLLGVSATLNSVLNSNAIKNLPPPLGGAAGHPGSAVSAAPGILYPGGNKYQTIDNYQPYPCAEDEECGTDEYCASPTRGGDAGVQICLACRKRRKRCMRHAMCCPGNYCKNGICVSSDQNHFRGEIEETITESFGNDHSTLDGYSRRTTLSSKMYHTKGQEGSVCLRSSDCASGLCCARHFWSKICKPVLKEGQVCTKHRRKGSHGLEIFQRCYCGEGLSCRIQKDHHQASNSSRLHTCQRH
# test_name: DKK1 binders on small-molecule microarrays, primary screen, biochemical, small-molecule microarray, 635 nm fluorescence scan (AID 1106);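 note: score merges emission near 667 nm with signal to noise over three replicate slides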
# test_conditions: DKK1 binding, higher = more signal
Our labelling divides records by composite z-score into ranges: group A: < 0.06; group B: ≥ 0.06 and < 0.5; group C: ≥ 0.5

Look over these answered cases.
compound: CN(C)C(=O)[C@@]1(Cc2ccccc2)N=C(c2ccc(OCCCO)cc2)O[C@H]1c1ccccc1N=[N+]=[N-]
class: group A

compound: C=C(CCCC)C(=O)CC[C@@H](OC(=O)c1cccnc1)c1ccc(CO)o1
class: group C

compound: [N-]=[N+]=Nc1ccccc1C[C@@]1(C(=O)NCCN2CCOCC2)N=C(c2ccc(OCCCO)cc2)O[C@@H]1c1ccccc1
class: group B

compound: CC(C)c1ccc(NN2C(C(O)c3cc(C(F)(F)F)cc(C(F)(F)F)c3)C=CC3C(=O)N(c4ccccc4)C(=O)C32)cc1 (centres undefined)
class: group A

compound: CCCC[C@@H]1C[C@H]1[C@@H](NC(=O)c1ccco1)c1ccc(Cl)cc1
class: group B

Please report the category associated with C=CCNC(=O)[C@@H]1[C@H]2C(=O)O[C@H](c3ccccc3)[C@H](c3ccccc3)N2[C@H](c2ccc(OCCO)cc2)[C@@]12C(=O)Nc1ccc(C#CCCO)cc12 , nothing else.
group C

Sort [N-]=[N+]=NCc1ccccc1C[C@]1(C(=O)O)N=C(c2ccc(OCCCO)cc2)O[C@H]1c1ccccc1N=[N+]=[N-] into one of the categories.
group A

Bin? Cc1ccc(C(C)CC(O)C2C=CC3C(=O)N(C)C(=O)C3N2NC(=O)OC(C)(C)C)o1 (centres undefined)
group C

Class label required: O=C1O[C@H](c2ccccc2)[C@H](c2ccccc2)N2[C@H]1[C@@H](C(=O)Nc1nc3ccccc3s1)[C@]1(C(=O)Nc3ccc(C#CCCO)cc31)[C@H]2c1ccc(OCCO)cc1
group B

Any idea which band COc1ccc([Si](C)(C)[C@H]2[C@H](CC(=O)N3Cc4ccccc4C[C@H]3CO)O[C@@]3(C(=O)N(Cc4ccc(N5CCC5=O)cc4)c4ccccc43)[C@@H]2C)cc1 is in?
group C

====

# test_name: inhibitors of hydroxyurea-induced Chk1 phosphorylation, primary screen, imaging, HeLa, phospho-Chk1 antibody, percent positive cells (AID 1186)
# test_conditions: hydroxyurea-induced phospho-Chk1 immunofluorescence imaging, higher = more signal
measurement_type: z-score
# respond with the number and nothing more

// below: answered molecules
molecule: COc1ccc(CCN2C(=O)[C@@]3(c4ccc([N+](=O)[O-])cc4)CC(=O)N(C4CCCCC4)[C@@H]3c3ccc(CO)cc32)cc1
measurement_type: z-score
endpoint_result: 0.135
//
molecule: COCCOC(=O)N1C(=O)[C@@]2(c3cc(C#Cc4ccc(OC)cc4)ccc31)[C@H](C(N)=O)[C@H]1C(=O)O[C@H](c3ccccc3)[C@H](c3ccccc3)N1[C@@H]2c1ccccc1OCCO
measurement_type: z-score
endpoint_result: -0.111

Given CC1CC/C=C\[C@H]2OC34C=CCN(c5ccc(Cl)cc5)C(=O)[C@H]3N(CCO)C(=O)[C@]4(C)C2C(=O)O1 (stereo partly drawn) , state its recorded z-score.
-0.0711

====

# test_name: small-molecule microarray binders of probe aCHRDL2, primary screen, biochemical, biotinylated probe, 635/667 nm fluorescence (AID 1100)
# test_conditions: higher = more signal
Catalogue of compounds with associated composite z-score
Output: the number by itself.

Answered examples (3):
compound: CC(C)C(CO)N1C(=O)[C@@H]2[C@H]3C(=O)OCC=C[C@H]3OC23C=CCN(C(C)C)C(=O)[C@@H]13 (some centres not stated)
composite z-score: -0.25
--
compound: O=C1c2ccccc2[C@@]2(Cc3ccccc3N(CC(F)(F)F)C2=O)[C@H](c2ccc(CO)cc2)N1Cc1ccccc1Cl
composite z-score: -0.524
--
compound: COC(=O)[C@@]1(Cc2ccc(F)cc2)[C@@H]2[C@@H](CC(=O)[C@H]2CC(=O)C(=O)N(C)C)CN1C(=O)c1ccccc1
composite z-score: 1.19

Give its composite z-score value. Item: COC(=O)C(CC#Cc1ccc2c(c1)[C@]1(C(=O)N2)[C@H](c2ccc(O)cc2)N2[C@H](c3ccccc3)[C@H](c3ccccc3)OC(=O)[C@H]2[C@@H]1C(=O)Nc1nc2ccccc2s1)C(=O)OC
-0.105

Which composite z-score is listed for COCCCN1C(=O)[C@@]2(c3ccc([N+](=O)[O-])cc3)CC(=O)N(C3CCCCC3)[C@@H]2c2ccc(CO)cc21 ?
-0.319

Requested read-out: composite z-score. Entry: O=C1O[C@H](c2ccccc2)[C@H](c2ccccc2)N2[C@H]1[C@@H](C(=O)O)[C@]1(C(=O)Nc3ccc(C#CC4=CCCCC4)cc31)[C@H]2c1ccccc1OCCO
0.134

Please report the recorded composite z-score for C=CCOC(=O)[C@H]1[C@@H]2C(=O)O[C@@H](c3ccccc3)[C@@H](c3ccccc3)N2[C@@H](c2ccc(OCCOC(=O)[C@@H]3C[C@@H]4C(=O)N[C@@H](CCCC[N+](C)(C)C)C(=O)N4[C@@H]3c3ccc(O)cc3)cc2)[C@]12C(=O)Nc1ccccc12 .
-0.372

====

# test_name: PSAC antagonists in infected red cells, primary screen, cell-based, P. falciparum Indochina, OD700, 18 h (AID 1157)
# test_conditions: P. falciparum Indochina infected erythrocytes, osmotic lysis OD700, 18 h; higher = more signal, called active from +8 up or from −8 down
Threshold rule: z-score greater than or equal to 1 is true (1); below that, false (0).

molecule: COc1ccc(C(=O)Nc2ccc(CN3C(=O)[C@@]4(O[C@@H](CCn5cc([C@H](O)c6ccccc6)nn5)[C@H]([Si](C)(C)c5ccc(OC)cc5)[C@H]4C)c4ccccc43)cc2)cc1
class: true (1)

molecule: [N-]=[N+]=Nc1ccccc1C[C@]1(C(=O)NCC(O)CO)N=C(c2ccc(OCCCO)cc2)O[C@H]1c1ccccc1N=[N+]=[N-] (stereo partly specified)
class: true (1)

# next molecule below
Reported z-score reaches at least 1 for CN1C(=O)C2C=CC(C(O)c3ccc(-c4ccccc4)s3)N(N(c3ccccc3)c3ccccc3)C2C1=O (stereo unspecified) ?
true (1)

====

# target_or_system: Dihydroorotate dehydrogenase (quinone), mitochondrial (Plasmodium falciparum (isolate 3D7)) (UniProt Q08210)
# Sequence (Q08210 whole entry, looked up): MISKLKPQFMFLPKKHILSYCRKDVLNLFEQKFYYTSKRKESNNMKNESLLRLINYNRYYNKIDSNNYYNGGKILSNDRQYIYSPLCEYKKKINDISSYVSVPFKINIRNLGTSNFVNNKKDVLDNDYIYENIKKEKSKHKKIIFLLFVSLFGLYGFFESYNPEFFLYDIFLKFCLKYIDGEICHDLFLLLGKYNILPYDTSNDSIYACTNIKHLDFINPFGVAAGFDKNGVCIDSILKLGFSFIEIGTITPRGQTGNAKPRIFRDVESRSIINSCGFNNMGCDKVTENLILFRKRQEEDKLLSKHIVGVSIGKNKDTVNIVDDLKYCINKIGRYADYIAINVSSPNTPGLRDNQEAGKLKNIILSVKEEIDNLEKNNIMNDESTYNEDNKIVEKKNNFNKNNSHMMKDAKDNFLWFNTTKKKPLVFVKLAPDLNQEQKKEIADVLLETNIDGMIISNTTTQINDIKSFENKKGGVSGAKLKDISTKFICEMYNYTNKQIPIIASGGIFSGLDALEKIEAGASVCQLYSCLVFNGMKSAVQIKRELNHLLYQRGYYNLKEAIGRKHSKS
# test_name: PfDHODH enzyme inhibitors, primary screen, biochemical, C-terminal His tag, absorbance 600 nm (AID 1175);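 note: recombinant parasite enzyme with a five histidine tag at its C terminus; test concentration not given here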
# test_conditions: DCIP absorbance 600 nm, higher = more signal, called active from +8 up or from −8 down
Please note: true applies when composite z-score is -2 or greater, and false applies otherwise.

compound: NCCCCCNC(=O)[C@@H]1C[C@@H]2C(=O)NCC(=O)N2[C@@H]1c1ccc(O)cc1
class: true

compound: O=C1C2C=CC(C(O)c3ccc(F)cc3)N(Nc3ccccc3F)C2C(=O)N1c1ccccc1 (stereo unspecified)
class: true

Answer whether composite z-score of O=C1c2ccccc2[C@@]2(Cc3ccccc3N(CCN3CCOCC3)C2=O)[C@H](c2ccc(CO)cc2)N1Cc1ccccc1 is greater than or equal to -2.
false

Textbook exercise: given the entry CC1(C)[C@@H]2CC(C(O)C3C=CC4C(=O)N(c5ccccc5)C(=O)C4N3Nc3ccccc3)=C[C@H]1C2 (stereo partly specified) , state whether its composite z-score is greater than or equal to -2.
true

Please tell me: is the compound C=CCOC(=O)[C@@H]1[C@H]2C(=O)O[C@H](c3ccccc3)[C@H](c3ccccc3)N2[C@H](c2ccc(OCCOC(=O)[C@@H]3C[C@@H]4C(=O)N[C@@H](CCCC[N+](C)(C)C)C(=O)N4[C@@H]3c3cccc(OCCO)c3)cc2)[C@@]12C(=O)Nc1ccc(I)cc12 at or over -2 in terms of composite z-score?
false

Check this compound for composite z-score at or above -2: COc1cc2c(cc1OC)CN(C(=O)[C@H]1[C@@H]3C(=O)O[C@@H](c4ccccc4)[C@@H](c4ccccc4)N3[C@@H](c3ccc(O)cc3)[C@]13C(=O)Nc1ccc(C#CCNC(N)=O)cc13)CC2
false

====

# test_name: yeast growth modulation, basal conditions, primary screen, YJM789 clinical isolate, OD600, 24 h (AID 1089);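 note: growth of clinical yeast isolate S. cerevisiae YJM 789 seeded 1000 cells per well; test concentration not given here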
# test_conditions: S. cerevisiae YJM789 growth, higher = more signal, called active from +8 up or from −8 down
measurement_type: z-score
Please give the numeric answer without any surrounding text.

For orientation, consider the following solved cases.
compound: CN1C(=O)C2C=CC(C(O)Cc3ccccc3)N(Nc3ccccc3)C2C1=O (stereo unspecified)
measurement_type: z-score
endpoint_result: 0.398
//
compound: O=C1O[C@H](c2ccccc2)[C@H](c2ccccc2)N2[C@H]1[C@@H](C(=O)NC[C@H](O)c1ccccc1)[C@]1(C(=O)Nc3ccccc31)[C@H]2c1ccc(OCCO)cc1
measurement_type: z-score
endpoint_result: 2.12

What value of measured z-score is listed for CCC(CC)C(O)C1C=CC2C(=O)N(C)C(=O)C2N1Nc1ccccc1 (stereo unspecified) ?
-0.0298

Name the reported z-score value associated with the compound C=C(CCCC)C(=O)CC[C@H](OC(=O)c1cccnc1)c1ccccc1OCCO
-2.23

# input compound: Cc1ccc(S[C@]2(C(=O)NCC(C)C)CC(=O)N(Cc3cc(C(F)(F)F)cc(C(F)(F)F)c3)[C@@H]2c2ccc(CO)cc2I)cc1 ; wanted: its z-score
-1.79

Provenance of the data: PubChem BioAssay
